Where these numbers come from: ChEMBL document CHEMBL4004831

Quick reference: GI50 of the listed items.
Test system: NCI-H522
Experiment: Growth inhibition of human NCI-H522 cells incubated for 48 hrs by sulforhodamine B assay
Format: functional
Conditions: NCI-H522, 48 h
ASSAY METRIC: GI50 (µM)

{"GIVEN SMILES": "COc1ccccc1CNCCCN1C(=O)c2ccc3c4c(ccc(c24)C1=O)C(=O)N(CCCOCCCCOCCCN)C3=O", "ASSAY METRIC": "GI50", "RESULT": 0.919}
{"GIVEN SMILES": "COc1ccccc1CNCCCN1C(=O)c2ccc3c4c(ccc(c24)C1=O)C(=O)N(CCCNCCNCCCN)C3=O", "ASSAY METRIC": "GI50", "RESULT": 1.22}
{"GIVEN SMILES": "COc1ccccc1CNCCCN1C(=O)c2ccc3c4c(ccc(c24)C1=O)C(=O)N(CCCCNCCCN)C3=O", "ASSAY METRIC": "GI50", "RESULT": 1.47}
{"GIVEN SMILES": "COc1ccccc1CNCCCN1C(=O)c2ccc3c4c(ccc(c24)C1=O)C(=O)N(CCCNCCCCNCCCN)C3=O", "ASSAY METRIC": "GI50", "RESULT": 0.18}
{"GIVEN SMILES": "COc1ccccc1CNCCCN1C(=O)c2ccc3c4c(ccc(c24)C1=O)C(=O)N(CCCN)C3=O", "ASSAY METRIC": "GI50", "RESULT": 1.57}
{"GIVEN SMILES": "CNCCCNCCCN1C(=O)c2ccc3c4c(ccc(c24)C1=O)C(=O)N(CCCNCc1ccccc1OC)C3=O", "ASSAY METRIC": "GI50", "RESULT": 1.23}
{"GIVEN SMILES": "COc1ccccc1CNCCCN1C(=O)c2ccc3c4c(ccc(c24)C1=O)C(=O)N(CCCNCCCN)C3=O", "ASSAY METRIC": "GI50", "RESULT": 0.572}
{"GIVEN SMILES": "CNCCCNCCCCNCCCN1C(=O)c2ccc3c4c(ccc(c24)C1=O)C(=O)N(CCCNCc1ccccc1OC)C3=O", "ASSAY METRIC": "GI50", "RESULT": 5.62}
{"GIVEN SMILES": "COc1ccccc1CNCCCN1C(=O)c2ccc3c4c(ccc(c24)C1=O)C(=O)N(CCCNCCCCN)C3=O", "ASSAY METRIC": "GI50", "RESULT": 0.172}
